The reported numbers originate from PubChem BioAssay.

Assay: inhibitors of TNFa-induced NFkB p65 translocation, primary screen, imaging, HUVEC, MLSMR starter and 10KST1 sets (AID 438);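 further: compound added about 3h40 before a 20 min TNFalpha stimulation; signal is the nuclear over cytoplasmic p65 intensity ratio per well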
Settings: HUVEC TNFa-induced p65 nuclear translocation; at 2 µM, hits give high values, 0% TNFa-plus-vehicle, 100% no-TNFa wells
result_type: inhibition (%)
Unit % implied. Number only.

Study these solved cases before continuing.
compound	inhibition (%)
COc1ccc(-c2noc(CCC(=O)Nc3nc4ccccc4s3)n2)cc1	-8.6
CC(C)CCNC(=O)CCNS(=O)(=O)c1ccc(Cl)cc1	-19.2
CCCNC(=O)C1=C(C)C(=O)OC12CCC(C)CC2 (stereo not given)	1.6
CCOC(=O)Cn1nnnc1CN(Cc1ccc(OC)cc1)Cc1cc2cc(C)ccc2[nH]c1=O	-4.9

Ask: Request the reported inhibition associated with `CCOCCCNS(=O)(=O)c1ccc2c(c1)oc(=O)n2CC(=O)OCC`
Reply: -6.6
